- ASSAYED_TARGET: SARS-CoV-2 RBD WT (for SPR binding assays) (SARS-CoV-2, Wuhan-Hu-1 (WT), UniProt P0DTC2)
- ASSAY_NAME: SPR
pKd: −log10 of the molar value.

| BINDER | pKd |
| --- | --- |
| S2X35 Fab (Fab, V domains shown) VH: QVQLVQSGAEVKKPGASVKVSCKASGYTFTNYGISWVRQAPGQGLEWMGWISAYKGNTNYAQKLQGRVTMTTDTSTSTAYMELRSLRSDDTAVYYCARPDYQVLGYDFWIGYYGMDVWGQGTTVIVSS VL: QSVLTQPPSVSGAPGQRVTISCTGSSSNIGAGYDVHWYQQLPGTAPKLLIYGNTNRPSGVPDRFSGSKSGTSASLAITGLQAEDEADYYCQSYDSSLSGSEVVFGGGTKLTVL | 9.70 |
| S2H97 IgG1 (antibody, V domains shown) VH: QVRLVQSGAEVKKSGESLKISCKGSGYSFTSYWIGWVRQMPGKGLEWMGIIYPGDSDTRYSPSFQGQVTISADKSISTVYLQWSSLKASDTAMYYCARQWSHYTYDYYYWGQGTLVTISS VL: QSVLTQPASVSGSPGQSITISCTGISSDVGGYNSVSWYQQHPGKAPKLMIYDVTNRPSGVSNRFSGSKSGNTASLTISGLQAEDEADYYCSSYTSSSTPPYVFGTGTKVSVL | 10.40 |
| S304 IgG1 (antibody, V domains shown) VH: EVQLVESGGGLVQPGGSLRLSCAASGFTFSSYDMHWVRQTTGKGLEWVSTIGTAGDTYYPDSVKGRFTISREDAKNSLYLQMNSLRAGDTAVYYCARGDSSGYYYYFDYWGQGTLLTVSS VL: DIQMTQSPSSLSAAVGDRVTITCRASQSIGSYLNWYQQKPGKAPKLLIYAASSLQSGVPSRFSGSGSGTDFTLTISSLQPEDFAIYYCQQSYVSPTYTFGPGTKVDIK | 9.40 |
| S2H97 Fab (Fab, V domains shown) VH: QVRLVQSGAEVKKSGESLKISCKGSGYSFTSYWIGWVRQMPGKGLEWMGIIYPGDSDTRYSPSFQGQVTISADKSISTVYLQWSSLKASDTAMYYCARQWSHYTYDYYYWGQGTLVTISS VL: QSVLTQPASVSGSPGQSITISCTGISSDVGGYNSVSWYQQHPGKAPKLMIYDVTNRPSGVSNRFSGSKSGNTASLTISGLQAEDEADYYCSSYTSSSTPPYVFGTGTKVSVL | 10.40 |
